- System: HDQ-P1
- Assay Details: normalised response (% of control), CellTiter-Glo; higher = more viable cells (100 = DMSO, 0 = benzethonium chloride kill control)
- Run Parameters: incubation time: 72 h
Measurement Label: normalised response (%)
Field format: number, assumed %, no unit text.

Compound	normalised response [%]
Cn1cc(CNCC2CCN(c3ncc(C(=O)NO)cn3)CC2)c2ccccc21 [Quisinostat] (0.1 nM)	100
Cc1cccc(-c2nn3c(c2-c2ccnc4ccc(C(N)=O)cc24)CCC3)n1 [Galunisertib] (1 nM)	102

The recorded normalised response for entry O=S(=O)(c1cccc2cnccc12)N1CCCNCC1 [Fasudil] (5000 nM) equals 101

Looking up COc1cc(CCc2cc(NC(=O)c3ccc(N4CC(C)NC(C)C4)cc3)n[nH]2)cc(OC)c1 (centres undefined) [AZD4547] (1 nM) , I see its normalised response listed as 98.3

For CC[C@@]1(O)C(=O)OCc2c1cc1n(c2=O)Cc2cc3c(CN(C)C)c(O)ccc3nc2-1 [Topotecan] (1 nM) the compound record lists normalised response as 99.7
